target desc: Acyl-CoA: Cholesterol Acyltransferase (ACAT) (Rattus norvegicus)
Construct: Microsomes were obtained by differential centrifugation; from tissue; host or cells: liver microsomes of male Sprague Dawley rats
Sequence (Q7TQM4 1-524): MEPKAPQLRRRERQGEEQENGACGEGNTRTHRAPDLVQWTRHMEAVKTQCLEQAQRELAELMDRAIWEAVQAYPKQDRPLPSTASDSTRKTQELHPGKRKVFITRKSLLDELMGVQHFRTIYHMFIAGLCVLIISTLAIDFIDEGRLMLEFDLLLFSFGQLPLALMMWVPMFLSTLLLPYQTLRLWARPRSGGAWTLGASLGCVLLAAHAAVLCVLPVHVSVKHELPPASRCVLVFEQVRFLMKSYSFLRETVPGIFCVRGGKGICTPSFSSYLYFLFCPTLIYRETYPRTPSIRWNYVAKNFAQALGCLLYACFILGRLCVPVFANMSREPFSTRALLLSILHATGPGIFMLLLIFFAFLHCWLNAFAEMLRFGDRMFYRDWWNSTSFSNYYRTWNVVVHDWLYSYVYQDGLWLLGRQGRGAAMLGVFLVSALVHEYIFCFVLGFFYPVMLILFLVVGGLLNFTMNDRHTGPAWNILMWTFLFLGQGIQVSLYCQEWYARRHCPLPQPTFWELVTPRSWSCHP
assay info: Inhibition of acyl-CoA: cholesterol acyltransferase (ACAT) in hepatic microsomes (in vitro)
Type: biochemical, rat (male Sprague Dawley)
condition summary: intermediate; read-out: IC50 in the in vitro ACAT assay
value kind: IC50 (µM)
Answer in µM, number only, no unit symbol.

Exercise: Recorded IC50 for CCCCCCCNCCCCCSc1nc(-c2ccccc2)c(-c2ccccc2)[nH]1 with Acyl-CoA: Cholesterol Acyltransferase (ACAT) (Rattus norvegicus), please?
Key: 0.1

###

target desc: Acyl-CoA: Cholesterol Acyltransferase (ACAT) (Rattus norvegicus)
Construct: Microsomes were obtained by differential centrifugation; from tissue; host or cells: liver microsomes of male Sprague Dawley rats
assay info: Inhibition of acyl-CoA: cholesterol acyltransferase (ACAT) in hepatic microsomes (in vitro)
Type: biochemical, rat (male Sprague Dawley)
condition summary: rat hepatic microsomes, 75 μM 14C-oleoyl-CoA, pH 7.4, 37° C.; read-out: In Vitro ACAT IC50
With a cut-off of 500 nM, any IC50 strictly below it is called T; any IC50 meeting it or above is called F.

Exercise: Given the entry CCCCCCCN(CCCCCSc1nc(-c2ccc(C(F)(F)F)cc2)c(-c2ccc(C(F)(F)F)cc2)[nH]1)C(=O)Nc1ccc(F)cc1F , would its reported IC50 be below 500 nM?
Key: F

Exercise: Given the entry CCCN(CCSc1nc(-c2ccccc2)c(-c2ccccc2)[nH]1)C(=O)Nc1ccc(F)cc1F , would its reported IC50 be below 500 nM?
Key: F

Exercise: Given the entry CCCCCCCN(CCCCCSc1nc(-c2ccccc2)c(-c2ccccc2)[nH]1)C(=O)OCC , would its reported IC50 be below 500 nM?
Key: T

Exercise: Given the entry CCCCCCCN(CCCCCSc1nc(-c2cccc(OC)c2)c(-c2cccc(OC)c2)[nH]1)C(=O)Nc1ccc(F)cc1F , would its reported IC50 be below 500 nM?
Key: T

###

# reported IC50; entries follow
target desc: Acyl-CoA: Cholesterol Acyltransferase (ACAT) (Rattus norvegicus)
Construct: Microsomes were obtained by differential centrifugation; from tissue; host or cells: liver microsomes of male Sprague Dawley rats
assay info: Inhibition of acyl-CoA: cholesterol acyltransferase (ACAT) in hepatic microsomes (in vitro)
Assay type: biochemical, rat (male Sprague Dawley)
condition summary: rat hepatic microsomes, 75 μM 14C-oleoyl-CoA, pH 7.4, 37° C.; read-out: In Vitro ACAT IC50
Answer in nM, number only, no unit symbol.

As a guide, the following entries are already answered.
CCCCCCCN(CCCCCSc1nc(-c2ccc(N(C)C)cc2)c(-c2ccc(N(C)C)cc2)[nH]1)C(=O)Nc1ccc(F)cc1F [Example 198]    40
CCCCCCCN(CCCCCSc1nc(-c2ccccc2)c(-c2ccccc2)[nH]1)C(=O)OCC(C)C [Example 403]    35
CCCCCCCN(CCCCCSc1nc(-c2ccccc2OC)c(-c2ccccc2OC)[nH]1)C(=O)Nc1ccc(F)cc1F [Example 196]    300
CCCCCCCN(CCCCCSc1nc(C(C)C)c(C(C)C)[nH]1)C(=O)Nc1ccc(F)cc1F [Example 188]    20
CCCCCCCN(CCCCCSc1nc(-c2ccccc2)c(-c2ccc(N(C)C)cc2)[nH]1)C(=O)Nc1ccc(F)cc1F [Example 200]    710

Exercise: Recorded IC50 for CCCCCCCN(CCCCCSc1nc(-c2ccccc2)c(-c2ccccc2)[nH]1)C(=O)Nc1cccc(F)c1 [Example 53] with Acyl-CoA: Cholesterol Acyltransferase (ACAT) (Rattus norvegicus), please?
Key: 17

Exercise: Recorded IC50 for CCCCCCCN(CCCCCSc1nc(-c2ccccc2)c(-c2ccccc2)[nH]1)C(=S)NCCC [Example 299] with Acyl-CoA: Cholesterol Acyltransferase (ACAT) (Rattus norvegicus), please?
Key: 140
